# Tested on: M07e
# ASSAY PROTOCOL: Secondary dose-response HTS, Cell Titer Glo
# Format: cell-based, human
# CONDITION SET: Homo sapiens, M-07e; secondary high-throughput screen; M07e; read-out: average effective concentration, M07e

{"COMPOUND": "CC(=O)O[C@@]12CO[C@@H]1C[C@H](O)[C@@]1(C)C(=O)[C@H](O)C3=C(C)[C@@H](OC(=O)[C@H](O)[C@@H](NC(=O)OC(C)(C)C)c4ccccc4)C[C@@](O)([C@@H](OC(=O)c4ccccc4)[C@H]21)C3(C)C [Docetaxel, docetaxel, reference compound]", "EC50": "1 nM"}
{"COMPOUND": "C=C1CC[C@@H]2[C@](C)(CO)[C@H](O)CC[C@@]2(C)[C@@H]1C/C=C1/C(=O)OC[C@H]1O [ANDROGRAPHOLIDE]", "EC50": "10000 nM"}
{"COMPOUND": "CN(C)C/C=C/C(=O)Nc1cc2c(Nc3ccc(F)c(Cl)c3)ncnc2cc1O[C@H]1CCOC1", "EC50": "> 10000 nM"}
{"COMPOUND": "C[C@@H](Oc1cc(-c2cnn(C3CCNCC3)c2)cnc1N)c1c(Cl)ccc(F)c1Cl", "EC50": "> 10000 nM"}
{"COMPOUND": "Cc1cc(Nc2cc(CN3CCOCC3)c3nc(C)c(Cc4ccc(Cl)cc4F)n3n2)n[nH]1", "EC50": "3000 nM"}
{"COMPOUND": "C#Cc1cccc(Nc2ncnc3cc(OC)c(OCCCCCCC(=O)NO)cc23)c1", "EC50": "190 nM"}
